Data provenance is patent US9326994B2.

Test: in vitro
Assay type: cell-based
Details: human
readout_type: CC50 at 4 days

Name the recorded CC50 at 4 days of the compound listed here: NCCCNC(=O)CCN1CCC(CCCC2CCN(CCC(=O)NCCCN)CC2)CC1
> 512 µg/mL

* * *

Test: in vitro
Format: cell-based
Settings: human; RPTEC, 4 days incubation, Alomar Blue; read-out: Cytotoxicity (Kidney Epithelial IC50)
readout_type: IC50 at 4 days

Name the recorded IC50 at 4 days of the compound listed here: NCCCNC(=O)CCN1CCC(CCCC2CCN(CCC(=O)NCCCN)CC2)CC1
> 512 µg/mL
